Reference source: patent US20210299079A1

Test system: IL-6
PROCEDURE_DETAILS: Cytokine Release from Human PBMCs: IL-6
Type: cell-based
STATED_CONDITIONS: LPS, 24 hours, Concentration 100 μM
ASSAY_ENDPOINT: IL6 % DMSO control

O=C[C@H](O)[C@@H](O)[C@@H](O)CO [L-arabinose] | + ((+) 50% > <90% DMSO)
Oc1ccc(C=Cc2cc(O)cc(O)c2)cc1 [resveratrol] | + ((+) 50% > <90% DMSO)
O=c1c(O)c(-c2ccc(O)c(O)c2)oc2cc(O)cc(O)c12 [quercetin] | + ((+) 50% > <90% DMSO)
CCCC(=O)O [butyrate] | + ((+) 50% > <90% DMSO)
C[C@@H](O)CCO [(R) 1,3-butanediol] | = ((=) 90% > <110% DMSO)

Give the reported IL6 % DMSO control for this compound. CCC(=O)O [propionate]
+ ((+) 50% > <90% DMSO)

Provide only the value of recorded IL6 % DMSO control for CC(=O)O [acetate]
= ((=) 90% > <110% DMSO)

Quickly give me recorded IL6 % DMSO control for CC(O)CC(=O)O (stereo not drawn) [β-hydroxybutyrate]
= ((=) 90% > <110% DMSO)
